These measurements were taken from PubChem BioAssay AID1159580.

Give measured normalized growth for each item. Keep answers brief.
Experiment: chemical genetic growth profiling, strain panel (AID 1159580);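 further: tested at 20 µM; growth read once vehicle control cultures reached saturation at 30 °C; 1 = growth at the plate median or of vehicle wells; lower values mean less growth of the strain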
Details: S. cerevisiae deletion strains, growth OD, locus YMR223W, strain ubp8, hits give low values
The campaign covered roughly 5,500 compounds. About 2,000 (36%) were called active. Not shown: some 18% with an inconclusive outcome. Some of the results follow.

Observe how each entry below is paired with its result.
compound: CCCc1c(OCCCCc2nn[nH]n2)ccc(C(C)=O)c1O
normalized growth: 0.991 (inactive)
--
compound: CC(=O)O[C@@H]1C=C[C@@]2(C)C(C[C@@H](OC(C)=O)[C@@]3(C)C4=CC(=O)O[C@@H](c5ccoc5)[C@]4(C)CCC23)C1(C)C (stereo not given in full)
normalized growth: 0.0665 (active)
--
compound: C=C1C[C@]23C[C@@]1(O)CC[C@H]2[C@@]12C=C[C@H](O)[C@@](C)(C(=O)O1)[C@H]2[C@@H]3C(=O)O
normalized growth: 1.01 (inactive)
--
compound: CC(C)CC1NC(=O)CNC1=O (stereo not given)
normalized growth: 0.988 (inactive)
--
compound: NC1=NCCN1CC(=O)O
normalized growth: 0.992 (inactive)

Hi! Can you tell me normalized growth for each of these compounds?
1. CC(=O)O[C@H]1CC[C@@]2(C)C(=CC(=O)C3C4CCC(C(C)CCCC(C)C)[C@@]4(C)CCC32)C1 (stereo not given in full)
2. CC(C)CCCC(C)[C@H]1CCC2C3C(=O)C=C4C[C@@H](O)CC[C@]4(C)C3CC[C@@]21C (stereo not given in full)
3. CS(=O)(=O)Nc1ccc([N+](=O)[O-])cc1Oc1ccccc1
4. C[C@H]1c2cccc(O)c2C(O)=C2C(=O)[C@]3(O)C(O)=C(C(N)=O)C(=O)[C@@H](N(C)C)[C@@H]3[C@@H](O)[C@@H]21
5. N[C@@H](CCC(=O)N[C@@H](CS)C(=O)NCC(=O)O)C(=O)O

Result:
0.983 (inactive)
1.02 (inactive)
0.993 (inactive)
0.922 (inactive)
0.985 (inactive)

* * *

Field: normalized growth. Provide a value for each of the compounds that follow.
Experiment: chemical genetic growth profiling, strain panel (AID 1159580)
Conditions: S. cerevisiae deletion strains, growth OD, locus YGL167C, strain pmr1, hits give low values
The campaign covered roughly 5,500 compounds. About 2,000 (36%) were called active. Another 18% or so got no clear call; they are omitted. The list shows a part of the results.
Numbers only.

compound: CC1=CCCC2C1(C)CCC(C)C2(C)CC/C(C)=C/C[n+]1cn(C)c2c(N)ncnc21 (stereo unspecified)
normalized growth: 0.976
--
compound: NC(Cn1ccc(=O)c(O)c1)C(=O)O (stereo unspecified)
normalized growth: 1.02
--
compound: COc1cc(C(C)=O)cc(OC)c1O
normalized growth: 1.03
--
compound: CC(C)CCCC(C)[C@H]1CCC2C3C(=O)C=C4C[C@@H](O)CC[C@]4(C)C3CC[C@@]21C (stereo partly specified)
normalized growth: 1.01
--
compound: CC(N=C(NC#N)Nc1ccncc1)C(C)(C)C (stereo unspecified)
normalized growth: 0.961

We now examine a further compound.
Entry CC(C)C[C@@H](CN)CC(=O)O , normalized growth reported as 1.02

* * *

Assay: chemical genetic growth profiling, strain panel (AID 1159580)
Conditions: S. cerevisiae deletion strains, growth OD, locus YER016W, strain bim1, hits give low values
About 2,000 (36%) of roughly 5,500 compounds were called active. Another 18% or so got no clear call; they are omitted. Some of the results follow.
Please go through the items and note down their normalized growth.
One number for each entry.

These solved cases illustrate the format of a correct answer.
compound: CC(C)CCCC(C)[C@H]1CCC2C3C(=O)C=C4C[C@@H](O)CC[C@]4(C)C3CC[C@@]21C (some centres not stated)
readout-name: normalized growth
result-value: 0.994
//
compound: COc1cc(C(C)=O)cc(OC)c1O
readout-name: normalized growth
result-value: 1.01
//
compound: CC(Cc1cccc(C(F)(F)F)c1)NCCOC(=O)c1ccccc1 (configuration not stated)
readout-name: normalized growth
result-value: 1

Give normalized growth for all compounds that follow.
1. CC(C)(C)NCC(O)c1ccc(O)c(CO)c1 (configuration not stated)
2. CC(CCC(=O)O)[C@H]1CCC2C3CC[C@@H]4C[C@H](O)CC[C@]4(C)C3C=C[C@@]21C (some centres not stated)
3. CC(CCC(=O)O)[C@H]1CCC2C3C(=O)C[C@@H]4CC(=O)CC[C@]4(C)C3CC(=O)[C@@]21C (some centres not stated)
4. CC(=O)O[C@H]1CC[C@@]2(C)C(=CC(=O)C3C4CCC(C(C)CCCC(C)C)[C@@]4(C)CCC32)C1 (some centres not stated)

Result:
[1.03, 0.999, 0.999, 0.989]

* * *

Assay: chemical genetic growth profiling, strain panel (AID 1159580);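 further: tested at 20 µM; growth read once vehicle control cultures reached saturation at 30 °C; 1 = growth at the plate median or of vehicle wells; lower values mean less growth of the strain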
Settings: S. cerevisiae deletion strains, growth OD, locus YHR094C, strain hxt1, hits give low values
The campaign covered roughly 5,500 compounds. About 2,000 (36%) were called active. Inconclusive results (about 18%) are left out. The list shows a part of the results.
readout-name: normalized growth
Give bare numbers.

Consider the reported normalized growth for these compounds:
compound: CCCSc1ccc2nc(NC(=O)OC)[nH]c2c1
normalized growth: 0.965

compound: CNCCCC12CCC(c3ccccc31)c1ccccc12
normalized growth: 0.997

compound: CC(C)=CC1C(C(=O)O)C1(C)C (configuration not stated)
normalized growth: 0.968

compound: CN(C)[C@@H]1C(=O)C(C(N)=O)=C(O)[C@@]2(O)C(=O)C3=C(O)c4c(O)ccc(Cl)c4[C@@](C)(O)[C@H]3C[C@@H]12
normalized growth: 1.01

compound: NC(Cn1ccc(=O)c(O)c1)C(=O)O (configuration not stated)
normalized growth: 0.996

compound: Cc1cc(=O)oc2cc(O)c(O)cc12
normalized growth: 1.02

compound: CC(C)c1ccc2c(c1)CCC1C(C)(C(N)=O)CCCC21C (configuration not stated)
normalized growth: 1

compound: CN(C)CCCN1c2ccccc2CCc2ccccc21
normalized growth: 0.978

compound: COC(=O)/C(=C1\OC(=O)C(c2ccccc2)=C1O)c1ccccc1
normalized growth: 0.989

compound: CCCOc1ccc2nc(NC(=O)OC)[nH]c2c1
normalized growth: 0.982

Please give normalized growth for each item listed below.
1. CC(=O)c1ccc(O)c(CC=C(C)C)c1
2. COc1cc(C(C)=O)cc(OC)c1O

Result:
[0.967, 1]

* * *

Test: chemical genetic growth profiling, strain panel (AID 1159580);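 further: tested at 20 µM; growth read once vehicle control cultures reached saturation at 30 °C; 1 = growth at the plate median or of vehicle wells; lower values mean less growth of the strain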
Details: S. cerevisiae deletion strains, growth OD, locus YLR221C, strain rsa3, hits give low values
In all, about 5,500 compounds went through this assay and about 2,000 (36%) were called active. About 18% were inconclusive and are not listed. This is one part of the list.
Can you tell me normalized growth for the items I'm about to list?

item-smiles: CN(C)[C@@H]1C(=O)C(C(=O)NCN2CCCC2)=C(O)[C@@]2(O)C(=O)C3=C(O)c4c(O)cccc4[C@@](C)(O)[C@H]3C[C@@H]12
result-value: 0.907 (active)
--
item-smiles: CS(=O)(=O)Nc1ccc([N+](=O)[O-])cc1Oc1ccccc1
result-value: 0.994 (inactive)

Query molecule follows.
Lab book: normalized growth of O=C(O)c1cc(O)c2c(c1)[C@@H]([C@H]1c3cc(C(=O)O)cc(O)c3C(=O)c3c(O[C@H]4O[C@H](CO)[C@@H](O)[C@H](O)[C@H]4O)cccc31)c1cccc(O[C@H]3O[C@H](CO)[C@@H](O)[C@H](O)[C@H]3O)c1C2=O noted as 0.986 (inactive)

* * *

Provide the reported normalized growth of each item.
Assay: chemical genetic growth profiling, strain panel (AID 1159580);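 further: tested at 20 µM; growth read once vehicle control cultures reached saturation at 30 °C; 1 = growth at the plate median or of vehicle wells; lower values mean less growth of the strain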
Conditions: S. cerevisiae deletion strains, growth OD, locus YPR141C, strain kar3, hits give low values
About 2,000 (36%) of roughly 5,500 compounds were called active. Another 18% or so got no clear call; they are omitted. Some of the results follow.
Numbers only.

compound: CC(C)CC1NC(=O)CNC1=O (stereo not given)
result-value: 0.984
--
compound: Oc1c(Cl)cc(Cl)cc1Sc1cc(Cl)cc(Cl)c1O
result-value: 0.979
--
compound: CC(CCC(=O)O)[C@H]1CCC2C3CC[C@@H]4CC(=O)CC[C@]4(C)C3C=C[C@@]21C (stereo not given in full)
result-value: 1.05
--
compound: C[C@H](CCC(=O)O)[C@H]1CCC2C3C(=O)CC4CC(=O)CC[C@]4(C)C3CC(=O)[C@@]21C (stereo not given in full)
result-value: 1.01
--
compound: CC(C)CCCC(C)[C@H]1CCC2C3CC[C@@H]4C[C@H](O)CC[C@]4(C)C3CC[C@@]21C (stereo not given in full)
result-value: 1.02
--
compound: CC(C)CCCC(C)C1CCC2C3C[C@@H](O)[C@@]4(O)C[C@@H](O)CC[C@]4(C)C3CC[C@]12C (stereo not given in full)
result-value: 1.02
--
compound: CC(C)CCCC(C)[C@H]1CCC2C3CC=C4CC(=O)CC[C@]4(C)C3CC[C@@]21C (stereo not given in full)
result-value: 0.988
--
compound: C=C(C)C1CCC(C)(O)C2CC3OC3(C)C2C1 (stereo not given)
result-value: 1.01

Please report normalized growth for every entry that follows.
1. CC(C)CCCC(C)C1CCC2C3=CC[C@H]4C[C@@H](O)CC[C@]4(C)C3CC[C@@]21C (stereo not given in full)
2. CC(C)CCCC(C)[C@H]1CCC2C3CC=C4C[C@@H](O)CC[C@]4(C)C3CC[C@@]21C (stereo not given in full)

Result:
[0.994, 0.995]
